biological target: HLA-B*40:01; assay: IEDB peptide-MHC binding, purified MHC/competitive/radioactivity; filed as Kd, often an IC50 or EC50 that approximates it; bounds were set here for any values at or beyond the usual limits of such assays; conditions: source organism: Mammarenavirus juninense
property label: Kd (µM)

>>> val("AETGSQGVYM")
3.03

----------
target: HLA-B*39:01; assay: IEDB peptide-MHC binding, purified MHC/direct/fluorescence; filed as Kd, often an IC50 or EC50 that approximates it; bounds were set here for any values at or beyond the usual limits of such assays; details: source organism: Camelpox virus M-96
pKd: −log10 of the molar value.
property label: pKd

>>> val("HHDPILNGL")
7.37
